System: E. coli ATCC 25922
procedure.details: Broth microdilution MIC
Assay type: cell-based
experimental.context: Escherichia coli, ATCC25922; microdilution method; read-out: Minimum inhibitory concentrations (MIC) E. coli ATCC 25922
Please go through the items and note down their MIC.
Numbers only, in µg/mL.

Record excerpt, results attached:
molecule | measured.value
CC(=O)Nc1ccc(S(=O)(=O)Nc2ccc3c(c2)OC(N)=C(C#N)C3c2ccc(F)cc2)cc1 (stereo not shown) [7b] | 128
COc1ccc(C2C(C#N)=C(N)Oc3cc(NS(=O)(=O)c4ccc(C)cc4)ccc32)cc1 (stereo not shown) [1b] | 256
Cc1noc(NS(=O)(=O)c2ccc(N)cc2)c1C [Sulfisoxazole, reference compound] | 256

Next up:
Consider the molecule shown here: COc1ccccc1C1C(C#N)=C(N)Oc2cc(NS(=O)(=O)c3ccc(C)cc3)ccc21 (stereo not shown) [2b] What is its recorded MIC?
128

* * *

Tested on: S. aureus ATCC 25923
procedure.details: Broth microdilution MIC
Assay type: cell-based
experimental.context: SAR effect diagram, Table 6
measured.parameter: MIC effect on S. aureus

molecule | MIC effect on S. aureus
Cc1ccc(S(=O)(=O)Nc2ccc3c(c2)OC(N)=C(C#N)C3c2ccc(Cl)cc2)cc1 (centres unmarked) | Neutral
CSc1ccc(C2C(C#N)=C(N)Oc3cc(NS(=O)(=O)c4ccccc4)ccc32)cc1 (centres unmarked) [10b] | Negative
CC(=O)Nc1ccc(S(=O)(=O)Nc2ccc3c(c2)OC(N)=C(C#N)C3c2ccc(F)cc2)cc1 (centres unmarked) | Positive
COc1ccc(C2C(C#N)=C(N)Oc3cc(NS(=O)(=O)c4ccc(C)cc4)ccc32)cc1OC (centres unmarked) | Negative
CC(=O)Nc1ccc(S(=O)(=O)Nc2ccc3c(c2)OC(N)=C(C#N)C3c2ccc(Cl)cc2)cc1 (centres unmarked) | Positive

Please give MIC effect on S. aureus for each item listed below.
1. COc1ccc(C2C(C#N)=C(N)Oc3cc(NS(=O)(=O)c4ccc(C)cc4)ccc32)cc1 (centres unmarked)
2. CC(=O)Nc1ccc(S(=O)(=O)Nc2ccc3c(c2)OC(N)=C(C#N)C3c2cccc(Oc3ccccc3)c2)cc1 (centres unmarked)
3. N#CC1=C(N)Oc2cc(NS(=O)(=O)c3ccccc3)ccc2C1c1ccccc1F (centres unmarked) [11b]

Negative
Neutral
Neutral

* * *

Please go through the items and note down their viability at 24 h.
procedure.details: Apoptosis Annexin V binding assay (flow cytometry)
Assay type: cell-based
experimental.context: mouse, L929 fibroblast cells; L929, IC50 concentration, Annexin V-FITC/PI
Numbers only, in %.

Record excerpt, results attached:
molecule | viability at 24 h, %
CC(=O)Nc1ccc(S(=O)(=O)Nc2ccc3c(c2)OC(N)=C(C#N)C3c2cccc(Oc3ccccc3)c2)cc1 (stereo not shown) | 46
CC(=O)Nc1ccc(S(=O)(=O)Nc2ccc3c(c2)OC(N)=C(C#N)C3c2ccc(Cl)cc2)cc1 (stereo not shown) | 43.2
Cc1ccc(S(=O)(=O)Nc2ccc3c(c2)OC(N)=C(C#N)C3c2ccc(Cl)cc2)cc1 (stereo not shown) | 77.4

Next up:
Consider the molecule shown here: COc1ccc(C2C(C#N)=C(N)Oc3cc(NS(=O)(=O)c4ccc(C)cc4)ccc32)cc1 (stereo not shown) What is its recorded viability at 24 h?
55

* * *

Test system: S. aureus ATCC 25923
procedure.details: Broth microdilution MIC
Assay type: cell-based
experimental.context: SAR effect diagram, Table 6
measured.parameter: MIC effect on S. aureus

compound | measured.value
COc1ccc(C2C(C#N)=C(N)Oc3cc(NS(=O)(=O)c4ccc(NC(C)=O)cc4)ccc32)cc1OC (stereo not drawn) | Negative
COc1ccccc1C1C(C#N)=C(N)Oc2cc(NS(=O)(=O)c3ccc(C)cc3)ccc21 (stereo not drawn) | Negative

* * *

Please go through the items and note down their melting point.

Record excerpt, results attached:
compound | melting point
CC(=O)Nc1ccc(S(=O)(=O)Nc2ccc3c(c2)OC(N)=C(C#N)C3c2ccc(F)cc2)cc1 (stereo not shown) | 230 to 233 °C
CSc1ccc(C2C(C#N)=C(N)Oc3cc(NS(=O)(=O)c4ccccc4)ccc32)cc1 (stereo not shown) [10b] | 135 to 138 °C
COc1ccc(C2C(C#N)=C(N)Oc3cc(NS(=O)(=O)c4ccc(C)cc4)ccc32)cc1OC (stereo not shown) | 127 to 130 °C

Please give melting point for each item listed below.
1. COc1ccccc1C1C(C#N)=C(N)Oc2cc(NS(=O)(=O)c3ccc(C)cc3)ccc21 (stereo not shown)
2. CC(=O)Nc1ccc(S(=O)(=O)Nc2ccc3c(c2)OC(N)=C(C#N)C3c2ccccc2)cc1 (stereo not shown)
3. COc1ccc(C2C(C#N)=C(N)Oc3cc(NS(=O)(=O)c4ccc(NC(C)=O)cc4)ccc32)cc1OC (stereo not shown)
4. N#CC1=C(N)Oc2cc(NS(=O)(=O)c3ccccc3)ccc2C1c1ccccc1F (stereo not shown) [11b]

1. 180 to 183 °C
2. 240 to 243 °C
3. 235 to 238 °C
4. 122 to 125 °C

* * *

Tested on: E. coli ATCC 25922
procedure.details: Broth microdilution MIC
Assay type: cell-based
experimental.context: Escherichia coli, ATCC25922; microdilution method; read-out: Minimum inhibitory concentrations (MIC) E. coli ATCC 25922
measured.parameter: MIC (µg/mL)
Answers are plain numbers, in µg/mL.

Please give MIC for each item listed below.
1. CC(=O)Nc1ccc(S(=O)(=O)Nc2ccc3c(c2)OC(N)=C(C#N)C3c2cccc(Oc3ccccc3)c2)cc1 (stereo not drawn) [6b]
2. CSc1ccc(C2C(C#N)=C(N)Oc3cc(NS(=O)(=O)c4ccccc4)ccc32)cc1 (stereo not drawn) [10b]
3. N#CC1=C(N)Oc2cc(NS(=O)(=O)c3ccccc3)ccc2C1c1ccccc1F (stereo not drawn) [11b]
4. COc1ccc(C2C(C#N)=C(N)Oc3cc(NS(=O)(=O)c4ccc(NC(C)=O)cc4)ccc32)cc1OC (stereo not drawn) [9b]
5. Cc1ccc(S(=O)(=O)Nc2ccc3c(c2)OC(N)=C(C#N)C3c2ccc(Cl)cc2)cc1 (stereo not drawn) [4b]
6. CNC(C)C1CCC(N)C(OC2C(N)CC(N)C(OC3OCC(C)(O)C(NC)C3O)C2O)O1 (stereo not drawn) [Gentamicin, reference compound]
7. CC(=O)Nc1ccc(S(=O)(=O)Nc2ccc3c(c2)OC(N)=C(C#N)C3c2ccccc2)cc1 (stereo not drawn) [5b]
8. CC(=O)Nc1ccc(S(=O)(=O)Nc2ccc3c(c2)OC(N)=C(C#N)C3c2ccc(Cl)cc2)cc1 (stereo not drawn) [8b]

1. 64
2. 256
3. 256
4. 256
5. 128
6. 4
7. 128
8. 64

* * *

System: fibroblast L929 cell line
procedure.details: Apoptosis Annexin V binding assay (flow cytometry)
Type: cell-based
experimental.context: L929 cells, 24 h, IC50 concentration of each compound
Please go through the items and note down their induced cell death.

molecule | induced cell death
COc1ccc(C2C(C#N)=C(N)Oc3cc(NS(=O)(=O)c4ccc(C)cc4)ccc32)cc1 (stereo not shown) | 42.29%
CC(=O)Nc1ccc(S(=O)(=O)Nc2ccc3c(c2)OC(N)=C(C#N)C3c2cccc(Oc3ccccc3)c2)cc1 (stereo not shown) | 53.85%
Cc1ccc(S(=O)(=O)Nc2ccc3c(c2)OC(N)=C(C#N)C3c2ccc(Cl)cc2)cc1 (stereo not shown) | 22.2%

Next up:
Consider the molecule shown here: CC(=O)Nc1ccc(S(=O)(=O)Nc2ccc3c(c2)OC(N)=C(C#N)C3c2ccc(Cl)cc2)cc1 (stereo not shown) What is its recorded induced cell death?
56.8%

* * *

Tested on: fibroblast L929 cells
procedure.details: Cytotoxicity assay by MTT
Type: cell-based
experimental.context: Mus musculus, fibroblast L929 cell line, 24 h
Please go through the items and note down their IC50.
One number for each entry, in µg/mL.

Please give IC50 for each item listed below.
1. CNC(C)C1CCC(N)C(OC2C(N)CC(N)C(OC3OCC(C)(O)C(NC)C3O)C2O)O1 (stereo not shown) [Gentamicin, reference compound]
2. COc1ccc(C2C(C#N)=C(N)Oc3cc(NS(=O)(=O)c4ccc(C)cc4)ccc32)cc1OC (stereo not shown)
3. N#CC1=C(N)Oc2cc(NS(=O)(=O)c3ccccc3)ccc2C1c1ccccc1F (stereo not shown) [11b]

1: 182; 2: 219; 3: 162

Please give IC50 for each item listed below.
1. COc1ccccc1C1C(C#N)=C(N)Oc2cc(NS(=O)(=O)c3ccc(C)cc3)ccc21 (stereo not shown)
2. Cc1ccc(S(=O)(=O)Nc2ccc3c(c2)OC(N)=C(C#N)C3c2ccc(Cl)cc2)cc1 (stereo not shown)
3. CC(=O)Nc1ccc(S(=O)(=O)Nc2ccc3c(c2)OC(N)=C(C#N)C3c2cccc(Oc3ccccc3)c2)cc1 (stereo not shown)
4. CC(=O)Nc1ccc(S(=O)(=O)Nc2ccc3c(c2)OC(N)=C(C#N)C3c2ccccc2)cc1 (stereo not shown)
5. CC(=O)Nc1ccc(S(=O)(=O)Nc2ccc3c(c2)OC(N)=C(C#N)C3c2ccc(F)cc2)cc1 (stereo not shown)
6. Cc1noc(NS(=O)(=O)c2ccc(N)cc2)c1C [Sulfisoxazole, reference compound]
7. COc1ccc(C2C(C#N)=C(N)Oc3cc(NS(=O)(=O)c4ccc(NC(C)=O)cc4)ccc32)cc1OC (stereo not shown)

229
152
114
173
182
218
234
